assay: Plasma pharmacokinetics of ALM201 in Phase I patients (validated LC-MS/MS, Phoenix WinNonlin); settings: human, plasma, sc, 100 mg, AUC0-t, Gmean (CV), 100 mg SC, day 18 cycle 1, n = 2, CV not calculated; plasma LC-MS/MS
No end group written: not given here.
observable: AUC(0-t)
The number alone won't do; follow it with the unit.

Endpoint output: AUC(0-t) of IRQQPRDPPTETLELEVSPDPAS [ALM201] . Value? 8100 ng·h/mL

---

assay: Plasma pharmacokinetics of ALM201 in Phase I patients (validated LC-MS/MS, Phoenix WinNonlin); conditions: human, plasma, sc, 80 mg, Plasma concentration, geometric mean (CV%), 80 mg SC, day 3 cycle 1, 3.5 h after dosing, n = 3; LC-MS/MS
No end group written: not given here.
observable: level at 3.5 h (ng/mL)
Record the value in ng/mL, omitting the unit from your answer.

Endpoint output: level at 3.5 h of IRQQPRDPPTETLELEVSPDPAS [ALM201] . Value? 524

---

assay: Plasma pharmacokinetics of ALM201 in Phase I patients (validated LC-MS/MS, Phoenix WinNonlin); details: human, plasma, sc, 80 mg, Plasma concentration, geometric mean (CV%), 80 mg SC, day 18 cycle 2, 1 h after dosing, n = 1; LC-MS/MS
No end group written: not given here.
observable: level at 1 h (ng/mL)
Record the value in ng/mL, omitting the unit from your answer.

Endpoint output: level at 1 h of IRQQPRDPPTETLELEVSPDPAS [ALM201] . Value? 808

---

experiment: Plasma pharmacokinetics of ALM201 in Phase I patients (validated LC-MS/MS, Phoenix WinNonlin); settings: human, plasma, sc, 40 mg, Plasma concentration, geometric mean (CV%), 40 mg SC, day 1 cycle 1, 3 h after dosing, n = 1; LC-MS/MS
No end group written: not given here.
observable: level at 3 h (ng/mL)
Record the value in ng/mL, omitting the unit from your answer.

Endpoint output: level at 3 h of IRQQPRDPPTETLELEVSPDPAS [ALM201] . Value? 368

---

assay: Plasma pharmacokinetics of ALM201 in Phase I patients (validated LC-MS/MS, Phoenix WinNonlin); conditions: human, plasma, sc, 300 mg, Plasma concentration, geometric mean (CV%), 300 mg SC, day 1 cycle 1, 0.75 h after dosing, n = 3; LC-MS/MS
No end group written: not given here.
observable: level at 0.75 h
The number alone won't do; follow it with the unit.

Endpoint output: level at 0.75 h of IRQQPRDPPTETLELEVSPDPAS [ALM201] . Value? 1970 ng/mL

---

test: Plasma pharmacokinetics of ALM201 in Phase I patients (validated LC-MS/MS, Phoenix WinNonlin); settings: human, plasma, sc, 300 mg, Plasma concentration, geometric mean (CV%), 300 mg SC, day 18 cycle 2, 1 h after dosing, n = 3; LC-MS/MS
No end group written: not given here.
observable: level at 1 h (ng/mL)
Record the value in ng/mL, omitting the unit from your answer.

Endpoint output: level at 1 h of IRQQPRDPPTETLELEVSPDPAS [ALM201] . Value? 2280

---

experiment: Plasma pharmacokinetics of ALM201 in Phase I patients (validated LC-MS/MS, Phoenix WinNonlin); settings: human, plasma, sc, 100 mg, Plasma concentration, geometric mean (CV%), 100 mg SC, day 18 cycle 1, 5 h after dosing, n = 2; LC-MS/MS
No end group written: not given here.
observable: level at 5 h (ng/mL)
Record the value in ng/mL, omitting the unit from your answer.

Endpoint output: level at 5 h of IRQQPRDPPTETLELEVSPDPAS [ALM201] . Value? 961

All values here come from paper PMC9276671.
